assay_info: Phase 1 (AG10-001) single ascending dose pharmacokinetics
Format: in vivo, human
condition: both sexes, human, plasma, po, 300 mg, single oral dose 300 mg AG10 HCl; healthy subjects; geometric mean ± SD; read-out: C24
measured_endpoint: concentration at 24 hr (nM)
A number alone suffices; assume nM.

Notebook: Cc1n[nH]c(C)c1CCCOc1cc(C(=O)O)ccc1F , concentration at 24 hr read as 2190

Data origin, for the record: patent US11058668B2
